tested on: SARS-CoV-2 Delta USA/MD-HP05647/2021 (Lineage B.1.617.2); assay: microbe, parasite or virus in culture; assay type: cell-based; settings: Severe acute respiratory syndrome coronavirus 2, Vero C1008, 4 h; read-out: Vero E6 Delta CPE/EC50
Measured pEC50 by item
Remember the convention: pEC50 equals -log10 of concentration in molar.

// worked examples, pEC50 included
[
  {
    "Molecule": "CCCc1ccc(S(=O)(=O)N[C@H](C(=O)N2C[C@H]3[C@@H]([C@H]2C(=O)N[C@H](C#N)C[C@@H]2CCNC2=O)C3(C)C)C(C)(C)C)s1 [Compound 171]",
    "pEC50": 7.09
  },
  {
    "Molecule": "CC(C)(C)[C@H](NS(=O)(=O)N1CCOCC1)C(=O)N1C[C@H]2[C@@H]([C@H]1C(=O)N[C@H](C#N)C[C@@H]1CCNC1=O)C2(C)C [Compound 49]",
    "pEC50": 5.80
  }
]

[Q] Request the reported pEC50 associated with CNC(=S)N[C@H](C(=O)N1C[C@H]2[C@@H]([C@H]1C(=O)N[C@H](C#N)C[C@@H]1CCNC1=O)C2(C)C)C(C)(C)C [Compound 35]
[A] 7.11
